- Tested on: ATP;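 further: ATP exposure 15 min at 22 °C before imaging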
- procedureDetails: switch fluorescence ratio, 500 uM ATP over buffer (Cy3 cluster intensity, sum of 5 cycles each) (fold (ratio)); higher = stronger signal-on switching upon ATP binding; sequences stand for … in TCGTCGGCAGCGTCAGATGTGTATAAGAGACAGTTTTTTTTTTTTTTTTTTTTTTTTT…TC
- runParameters: aptamer strand: ATP DNA aptamer (quencher-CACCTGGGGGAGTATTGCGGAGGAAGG + anchor), 100 nM annealed; ATP concentration: 500 uM
Could you please report measured switch fluorescence ratio for the items listed next?
I only need the number, thanks.

Name the recorded switch fluorescence ratio of the sequence listed here: "TGCGCGAAAG"
0.98

Name the recorded switch fluorescence ratio of the sequence listed here: "CGGGTCTGTT"
0.979

Name the recorded switch fluorescence ratio of the sequence listed here: "ATCGCTGGGA"
0.972

Name the recorded switch fluorescence ratio of the sequence listed here: "CACCTGATGG"
0.997

Name the recorded switch fluorescence ratio of the sequence listed here: "CGGCAGAAAT"
0.967

Name the recorded switch fluorescence ratio of the sequence listed here: "GGAAACTTTT"
1.07

Name the recorded switch fluorescence ratio of the sequence listed here: "GTTAGAGATA"
0.992

Name the recorded switch fluorescence ratio of the sequence listed here: "TTTAAGAGAA"
1

Name the recorded switch fluorescence ratio of the sequence listed here: "GAGATGTCTT"
0.983

Name the recorded switch fluorescence ratio of the sequence listed here: "ACAAGACTTA"
1.04

Name the recorded switch fluorescence ratio of the sequence listed here: "CGGTGTACGC"
1.06

Name the recorded switch fluorescence ratio of the sequence listed here: "GAGTATGTGG"
0.952

Name the recorded switch fluorescence ratio of the sequence listed here: "TTGGGGGAGC"
0.976

Name the recorded switch fluorescence ratio of the sequence listed here: "GGGGATATCG"
1.03

Name the recorded switch fluorescence ratio of the sequence listed here: "TGAGACAATA"
1.1

Name the recorded switch fluorescence ratio of the sequence listed here: "CGTGATTTGA"
0.986

Name the recorded switch fluorescence ratio of the sequence listed here: "ATTGGGGAGG"
0.974

Name the recorded switch fluorescence ratio of the sequence listed here: "GGGGGTCG"
1.03

Name the recorded switch fluorescence ratio of the sequence listed here: "TCATACTCAA"
1.4

----------
- System: ATP;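 further: ATP exposure 15 min at 22 °C before imaging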
- procedureDetails: switch fluorescence ratio, 500 uM ATP over buffer (Cy3 cluster intensity, sum of 5 cycles each) (fold (ratio)); higher = stronger signal-on switching upon ATP binding; sequences stand for … in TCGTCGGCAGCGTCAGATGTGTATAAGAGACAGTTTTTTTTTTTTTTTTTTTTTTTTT…TC
- runParameters: aptamer strand: ATP DNA aptamer (quencher-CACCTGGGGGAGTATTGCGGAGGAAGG + anchor), 100 nM annealed; ATP concentration: 500 uM
Could you please report measured switch fluorescence ratio for the items listed next?

Jot down switch fluorescence ratio (ATP) of "AAGCTAGGGA" .
1.01

Jot down switch fluorescence ratio (ATP) of "CATTTATAGT" .
0.98

Jot down switch fluorescence ratio (ATP) of "TTTTTATGGC" .
0.978

Jot down switch fluorescence ratio (ATP) of "TCAGGGGATG" .
0.99

Jot down switch fluorescence ratio (ATP) of "CTTTACGGGC" .
1.02

Jot down switch fluorescence ratio (ATP) of "AAAAGGAAGT" .
1.01

----------
- Tested on: ATP;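 further: ATP exposure 15 min at 22 °C before imaging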
- procedureDetails: switch fluorescence ratio, 500 uM ATP over buffer (Cy3 cluster intensity, sum of 5 cycles each) (fold (ratio)); higher = stronger signal-on switching upon ATP binding; sequences stand for … in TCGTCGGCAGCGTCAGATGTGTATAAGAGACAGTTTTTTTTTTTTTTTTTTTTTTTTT…TC
- runParameters: aptamer strand: ATP DNA aptamer (quencher-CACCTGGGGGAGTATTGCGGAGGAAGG + anchor), 100 nM annealed; ATP concentration: 500 uM
readoutName: switch fluorescence ratio
I only need the number, thanks.

Name the recorded switch fluorescence ratio of the sequence listed here: "TATGGTGTTC"
0.981

Name the recorded switch fluorescence ratio of the sequence listed here: "TCAAAGGGCC"
1

Name the recorded switch fluorescence ratio of the sequence listed here: "GATATTTAGG"
1.02

Name the recorded switch fluorescence ratio of the sequence listed here: "AGACAGGAGA"
0.985

Name the recorded switch fluorescence ratio of the sequence listed here: "ATGGGCACA"
0.999

Name the recorded switch fluorescence ratio of the sequence listed here: "GGCTGTTCGG"
0.988

Name the recorded switch fluorescence ratio of the sequence listed here: "TGATTTTAGG"
0.983

Name the recorded switch fluorescence ratio of the sequence listed here: "CTGATGGGTG"
1.01

Name the recorded switch fluorescence ratio of the sequence listed here: "ATCAGGTAAG"
0.968

Name the recorded switch fluorescence ratio of the sequence listed here: "TAACAGGTGA"
2.17

Name the recorded switch fluorescence ratio of the sequence listed here: "TATTTGAGGG"
1

Name the recorded switch fluorescence ratio of the sequence listed here: "GTTGAGGGGA"
1.01

Name the recorded switch fluorescence ratio of the sequence listed here: "CCCCAAAAGT"
1.12

Name the recorded switch fluorescence ratio of the sequence listed here: "TTTTTTGAGC"
0.996

Name the recorded switch fluorescence ratio of the sequence listed here: "AGGGAGAATT"
1

Name the recorded switch fluorescence ratio of the sequence listed here: "TTTGTATCAT"
1.02

Name the recorded switch fluorescence ratio of the sequence listed here: "CGGGAGGTTT"
0.985

Name the recorded switch fluorescence ratio of the sequence listed here: "TTTAAAGGAT"
1

Name the recorded switch fluorescence ratio of the sequence listed here: "TAGTGTATCG"
0.993

Name the recorded switch fluorescence ratio of the sequence listed here: "TATAGGTGCA"
0.997

Name the recorded switch fluorescence ratio of the sequence listed here: "GGGGCAGCAG"
1.02

Name the recorded switch fluorescence ratio of the sequence listed here: "GGGTTAGTGG"
0.976

Name the recorded switch fluorescence ratio of the sequence listed here: "ATCAGTATAT"
0.992

Name the recorded switch fluorescence ratio of the sequence listed here: "GACACGGAAA"
1.23

Name the recorded switch fluorescence ratio of the sequence listed here: "TTGCATGTTG"
0.989

Name the recorded switch fluorescence ratio of the sequence listed here: "AATTGGGGGT"
0.992

Name the recorded switch fluorescence ratio of the sequence listed here: "TTTTTTTGC"
1
